B1: HDV Ribozyme (parent)
chain: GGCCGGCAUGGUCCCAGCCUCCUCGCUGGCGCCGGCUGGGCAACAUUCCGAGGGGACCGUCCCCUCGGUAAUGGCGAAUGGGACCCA

variants of: B1; test: self-cleavage, relative activity (ratio to wild type); higher = more cleavage; co-transcriptional
Would you kindly list self-cleavage for each of these variants?
Give bare numbers.

Reference set (2 entries):
>>> print(df.to_string())
                              item_sequence  recorded_result
0  GGCCGGCAUGGGCCCAGCCUCCUCGCUGGCGCCGGCUGGGCAACAUUCCGAGAGGACCGUCCCCUCGGUAAUGGCGAAUGGGACCCA             0.88
1  GGCCGGCAUGGUCCCGGCCUCCUCGCUGGCGCCGGCUGGGCAACAUUCCGAGGGGACCGUCACCUCGGUAAUGGCGAAUGGGACCCA            0.877

Read the next record carefully.
Task item: Requested field: self-cleavage. Item: GGCCGGCAUGGUCCCAGCCUCCUCGUUGGCGCCGGCUGGGCAACAUUCCGAGGGGACCUUCCCCUCGGUAAUGGCGAAUGGGACCCA
Reply: 0.881
